Where do the numbers come from? From ChEMBL document CHEMBL1201862.

tested on: MDA-MB-231; assay: NCI tumour cell line growth inhibition, 48 h
Activity calls are given as the source filed them. Cut-off read from the data, not from the text of the source: active = GI50 up to about 1.1 µM and inactive = higher.
Reply using exactly one outcome from active, inactive

// known answers, use as guide
- CCCCCOc1ccc(NC2=C(Cl)C(=O)c3c(O)ccc(O)c3C2=O)cc1: inactive
- N#CC1C(=S)NC(c2ccccc2)=CC12CCCCC2 (centres undefined): inactive
- Nc1ncc(C=O)c(NCC2(CO)CCC2)n1: inactive
- NC1=NCC(CN2CCCCC2)O1 (centres undefined): inactive
- Nc1ncn([C@H]2C[C@H](O)[C@@H](CO)O2)c(=O)n1 [DECITABINE]: inactive

Task: Answer briefly: the call reported for Cc1cccc(N(CCC#N)S(=O)(=O)c2ccccc2)c1 in this assay.
Result: inactive

Task: Field: outcome | Entry: CC1(O)CC(=O)c2c(cc3ccc(-c4c5c(c(O)c6c(O)cccc46)C(=O)CC(C)(O)C5)c(O)c3c2O)C1 (centres undefined)
Result: active

Task: # outcome recorded in this test, key = CCN(CC)CCOC(NC(C)=O)(c1ccccc1)c1ccccc1
Result: inactive

Task: Record lookup: outcome of this test for CCNCC(O)c1ccc(N)c([N+](=O)[O-])c1 (centres undefined) ?
Result: inactive

* * *

tested on: 786-0; assay: NCI tumour cell line growth inhibition, 48 h
Calls of active or inactive are those of the source. Cut-off read from the data, not from the text of the source: active = GI50 up to about 1.1 µM and inactive = higher.
Item-by-item account of GI50

• CC1(C)N=C(/C=N/O)C(C)(C)N1O = > 100 µM (inactive)
• Cc1ccc(S(=O)(=O)NC(CO)C(=O)O)cc1 (centres undefined) = > 100 µM (inactive)
• CC1OC(=O)C2CC3CCCCC3C(/C=C/C3CCCC(C)N3C)C12 (centres undefined) = > 100 µM (inactive)
• O=c1ccc(=O)c2c(=O)c3ccccc3c(=O)c1=2 = 39.7 µM (inactive)
• NCCCCN(CCCN)Cc1ccc2ccccc2c1 = 34.2 µM (inactive)

Task: Field: GI50 (786-0). Entry: O=C(O)CC1(CC(=O)O)Nc2ccccc2SC1=O
Result: > 100 µM (inactive)

Task: Query GI50 on 786-0 for COP(=O)(OC)C12CCOCCN1c1ccccc1C2=O (centres undefined)
Result: > 100 µM (inactive)

Task: Find GI50 (786-0) for the entry O=C1c2cccc([N+](=O)[O-])c2C(=O)N1Cc1ccccc1
Result: > 100 µM (inactive)

Task: What reported GI50 corresponds to COc1ccc2[nH]c3c(c2c1)[C@H]1CCC(C(C)(C)C)C[C@H]1[C@H]1C(=O)N(c2ccccc2)C(=O)[C@@H]31 (some centres undefined) on 786-0?
Result: 3.86 µM (inactive)

Task: Lab request: please report GI50 under test system 786-0 for Nc1ccn(CC(CO)CC(c2ccccc2)P(=O)(O)O)c(=O)n1 (centres undefined)
Result: > 100 µM (inactive)

Task: Query for 786-0: what GI50 does the record show for O=C(NNC(=O)c1ccncc1)c1ccncc1 ?
Result: > 100 µM (inactive)

* * *

test system: OVCAR-3; experiment: NCI tumour cell line growth inhibition, 48 h
Active and inactive are the calls of the source. Rule as the data show it: active = GI50 up to about 1.1 µM and inactive = higher.
assayMetric: GI50

These solved cases illustrate the format of a correct answer.
- CCOC(=O)N(C)C1(c2ccccc2)CCN(CCCC(=O)c2ccc(F)cc2)CC1: 44 µM (inactive)
- NC1c2c(Br)sc(N3CCCC3)c2C(=O)C1O (stereo not drawn): > 50 µM (inactive)

Task: Recorded GI50 for CCC1CN2CCc3cc(OC)c(OC)cc3C2CC1CC1c2cc(OC)c(OC)cc2CCN1C(=O)C(Cc1c[nH]c2ccccc12)NC(=O)OC(C)(C)C (stereo not drawn) with OVCAR-3, please?
Result: 3.3 µM (inactive)

Task: Kindly state the measured GI50 obtained for CC1=CC2CC(C)C1(C)CCc1ccoc12 (stereo not drawn) with OVCAR-3.
Result: > 100 µM (inactive)

Task: Request: GI50, test system OVCAR-3, entry Clc1ccc2cccc3c2c1C1OC3c2ccccc21 (stereo not drawn)
Result: > 100 µM (inactive)

Task: Notebook entry, OVCAR-3 assay: GI50 of CCC12CCC(O)C1N(C)CCC2Sc1ccccc1 (stereo not drawn) = ?
Result: > 100 µM (inactive)

Task: For OVCAR-3, provide GI50 of CC1=C(O)C(=O)c2cn(C)cc2C1=O please.
Result: > 100 µM (inactive)

Task: Field: GI50 (OVCAR-3). Entry: NCCCCNCCCNC(=O)c1nc(-c2csc(CCN)n2)sc1Cl
Result: > 100 µM (inactive)

* * *

Below, each of the compounds is paired with its reported GI50 value.
system: SK-MEL-28; test: NCI tumour cell line growth inhibition, 48 h
Activity calls are given as the source filed them. No stated cut-off is given here; in the data, active = GI50 up to about 1.1 µM and inactive = higher.

Task: What value of GI50 has been recorded for this entry: CSc1nc(=O)n(CCC#N)nc1SC
Result: 14 µM (inactive)

Task: Entry under review: Cc1ccc(S(=O)(=O)Oc2cc(-c3ccccc3)nc3ccccc23)cc1 . Reported GI50?
Result: 11.3 µM (inactive)

Task: Form field: reported GI50 of CCSc1nnc(-c2ccccc2)nc1Cc1ccc(OC)cc1
Result: > 100 µM (inactive)

Task: What GI50 value was documented for this compound, CN(C)CCCNC(=O)c1c(O)c2ccccc2n(C)c1=O ?
Result: 74.6 µM (inactive)

Task: // lookup GI50 for Cc1ccc(C(=N)Nc2ccccc2)cc1
Result: > 100 µM (inactive)

Task: # input compound: O=C1C2=C(c3ccccc31)C(c1ccccc1Cl)NC(S)=N2 (stereo not given) ; wanted: its GI50
Result: 55.5 µM (inactive)

Task: Field request: GI50 | item: CC(CCOc1c2ccoc2cc2oc(=O)ccc12)C1=CC(=O)C(C)(C)O1 (stereo not given)
Result: > 100 µM (inactive)

Task: Report GI50 for CCOc1cc2c(cc1O)C=C[C@@H]1[C@@H]2CC[C@]2(C)[C@@H](O)CC[C@@H]12 please.
Result: 22.3 µM (inactive)

Task: Reported GI50, compound CC1CC2C3CCC4=CC(=O)C=CC4(C)C3(F)C(O)CC2(C)C1(O)C(=O)CO.Cc1nnc(NS(=O)(=O)c2ccc(/N=N/c3cc(/N=N/c4ccc(S(=O)(=O)Nc5nnc(C)s5)cc4)c4c(NC(=O)C(Cl)Cl)cccc4c3OC(=O)C(Cl)Cl)cc2)s1 : ____
Result: 20.8 µM (inactive)

Task: Looking for the measured GI50 of CC1(C)N=C(/C=N/O)C(C)(C)N1O , can you help?
Result: > 100 µM (inactive)

* * *

tested on: SK-OV-3; assay: NCI tumour cell line growth inhibition, 48 h
Calls of active or inactive are those of the source. Rule as the data show it: active = GI50 up to about 1.1 µM and inactive = higher.
assayMetric: GI50

- CC(CCOc1c2ccoc2cc2oc(=O)ccc12)C1=CC(=O)C(C)(C)O1 (stereo unspecified): > 100 µM (inactive)

Task: Look up GI50 for this compound: COc1ccc(-c2cn3c(nc4ccccc43)c(/C=C/c3cccs3)n2)cc1
Result: 75.2 µM (inactive)

Task: // returns reported GI50 for input Clc1ccc(Cl)c(SCCCN2CCNCC2)c1
Result: 15.1 µM (inactive)

Task: Which value of GI50 has been reported for CC/C(SC)=[N+](\C)[O-] in the records?
Result: > 100 µM (inactive)

Task: I have this compound here, CN(C)C(=S)/N=c1\ss/c(=N\C(=S)N(C)C)n1-c1ccc(Cl)cc1 , and I need its recorded GI50.
Result: > 100 µM (inactive)

Task: Which GI50 value is on record for N#C/C(=C/C=C/c1ccco1)C(N)=O ?
Result: > 10 µM (inactive)

* * *

test system: CAKI-1; test: NCI tumour cell line growth inhibition, 48 h
Calls of active or inactive are those of the source. Rule as the data show it: active = GI50 up to about 1.1 µM and inactive = higher.
Please state which outcome applies, choosing from T = active, F = inactive

• CCOC(=O)NC(NC1=NCCS1)(C(=O)OCC)C(F)(F)F (stereo unspecified) = F

Task: Just curious, what result did O=C1c2cc([N+](=O)[O-])cc3cc([N+](=O)[O-])cc(c23)C(=O)N1CCCNCCNCCCN1C(=O)c2cc([N+](=O)[O-])cc3cc([N+](=O)[O-])cc(c23)C1=O get here?
Result: T

Task: Which outcome was entered for the molecule CNc1ccc(/C=C2\C=Cc3ccccc32)cc1 in this test?
Result: F

Task: # fetch the recorded call for O=S(=O)(O)c1cc(S(=O)(=O)O)c2c(/N=N/c3ccc(/N=N/c4ccccc4)cc3)c(O)ccc2c1 here
Result: F

Task: What did this assay record as the result for N#Cc1c(N)c(C(=O)O)nn(-c2cccc(C(F)(F)F)c2)c1=O ?
Result: F

Task: # outcome recorded in this test, key = Cc1ccc(S(=O)(=O)NC(CO)C(=O)O)cc1 (stereo unspecified)
Result: F

* * *

tested on: IGROV-1; assay: NCI tumour cell line growth inhibition, 48 h
The source made the active and inactive calls. Rule as the data show it: active = GI50 up to about 1.1 µM and inactive = higher.
assayMetric: GI50

• C[C@@H]1S[C@H](c2c(Cl)cccc2Cl)N2Cc3ccccc3N=C12 = > 100 µM (inactive)
• CCCCCCCCCCCC[S+](C)C = 2 µM (inactive)

Task: What value of GI50 has been recorded for this entry: N#CCC12CC=CCC1=C(O)C(=O)c1ccc(O)cc12 (stereo not drawn)
Result: > 100 µM (inactive)

Task: Suppose we examine the molecule N#CCCC1(CCC#N)CCCCCCC(CCC#N)(CCC#N)C(=O)C1=O ; what GI50 value has been reported?
Result: > 100 µM (inactive)

Task: // query GI50 value for entry CNc1ccc(/C=C2\C=Cc3ccccc32)cc1
Result: 24.2 µM (inactive)

Task: For Nc1nc(Cl)cc(NC2(CO)CCC2)n1 , what is its reported GI50?
Result: > 100 µM (inactive)

Task: Fill blank: measured GI50 of the molecule CC(=O)Nc1cc(Cl)cc(Cl)c1O is ____.
Result: > 100 µM (inactive)
